System: CN1E1
Construct: catalytic triad Ser155, Asp250, His280
Test Details: ester hydrolysis kinetics
Type: biochemical, uncultured bacterium
Condition Description: 5 mM EPPS pH 8.0, 40°C
Recorded Metric: Km (µM)
Please reply with the bare figure in µM and do not write the unit itself.

See these solved cases before continuing.
compound=COC(=O)c1ccc2cc3ccccc3cc2c1 unit_tag=µM numeric_readout=1470
compound=O=Cc1ccc(C(=O)OCc2ccccc2)cc1 unit_tag=µM numeric_readout=640
compound="COC(=O)/C=C/c1cc(O)ccc1O [2,5-Dihydroxycinnamic acid methyl ester]" unit_tag=µM numeric_readout=1060

Q. What value of measured Km is listed for CC(=O)Oc1ccccc1 [Phenyl acetate] ?
A. 940

Q. Queued: CCCCOC(C)=O [Butyl acetate]
A. 2100

Q. Queued: "CC(=O)OC[C@H]1OC=C[C@@H](OC(C)=O)[C@@H]1OC(C)=O"
A. 1080

Origin of the recorded values: paper PMC3937722
